Test system: SW-620 colon
Test: NCI tumour cell line growth inhibition, 48 h
value.kind: TGI

compound: O=C(O)c1nc(-c2ccccc2)ncc1-c1nnnn1-c1ccccc1
assay.result: > 100 µM

compound: CNCCNc1c2c(c(NCCNC)c3c(CN(C)C)c[nH]c13)C(=O)c1ccccc1C2=O
assay.result: 11 µM

compound: O=C(OC(=O)n1ccc2ccccc21)n1ccc2ccccc21
assay.result: > 100 µM

compound: C/C(=C\CCc1ccoc1)CC/C=C(\C)CCCC1=CC(=O)OC1
assay.result: > 100 µM

compound: Cc1nc2ccccc2c(=O)n1NC(=O)c1ccc(CS)cc1
assay.result: 21.7 µM

compound: COc1ccc(N2C(=O)C(c3ccccc3)(c3ccccc3)C23C(=O)N(C)c2ccccc23)cc1 (stereo unspecified)
assay.result: > 100 µM

* * *

Test system: OVCAR-3 ovarian
Assay: NCI tumour cell line growth inhibition, 48 h

compound: Clc1coc2nc3ccccc3c(Nc3ccc4c(c3)OCO4)c12
GI50: 596 nM

compound: C/C1=C\CC[C@@]2(C)O[C@@H]2[C@H]2OC(=O)[C@@H](CN(C)C)[C@@H]2CC1
GI50: 12100 nM

compound: OCCN1CN(CCO)CN(c2nc(N3CN(CCO)CN(CCO)C3)nc(N3CN(CCO)CN(CCO)C3)n2)C1
GI50: 2.2 ng/mL

compound: O=C(c1ccccc1)c1cc(Cl)ccc1OCCCCN1CCN(CCCCOc2ccc(Cl)cc2C(=O)c2ccccc2)CC1
GI50: 2360 nM

compound: NC(=NCCCOc1ccc(Cl)cc1)Nc1ccc(C(F)(F)F)cc1
GI50: 2260 nM

compound: C=C(C=O)C1CCC2(C(=O)O)CCC3(C)C(CCC4C5(C)CCC(O)C(C)(C)C5CCC43C)C12 (centres undefined)
GI50: 1440 nM

compound: CC(O)C(N=Cc1ccccc1[O-])C(=O)[O-].CC(O)C(N=Cc1ccccc1[O-])C(=O)[O-].[Co+2] (centres undefined)
GI50: > 100000 nM

compound: CC(C)=C[C@@H]1C[C@H](C)[C@H]2CC[C@H](C)C3=C2[C@](O)(OC3=O)[C@]1(C)O
GI50: > 100000 nM

compound: Clc1ccc2c(NCCCNc3nccc(Nc4ccc(Br)cc4)n3)ccnc2c1
GI50: 1750 nM

* * *

Tested on: HCT-15 colon
Test: NCI tumour cell line growth inhibition, 48 h
value.kind: TGI

smiles.structure: CC(=O)O.CC(=O)O.CC(=O)O.CC(=O)O.CC(=O)O.CC(=O)O.O.[Ti].[Ti]
assay.result: > 100 µM
//
smiles.structure: COCCOc1cc(F)c2c(Nc3ccc(NC(=O)Cn4cc(C(C)C)nn4)cc3)ncnc2c1
assay.result: > 100 µM
//
smiles.structure: Cc1ccccc1N1C(=O)/C(=C/c2ccc(N(CCC#N)CCC#N)cc2)N=C1c1cc([N+](=O)[O-])ccc1Cl
assay.result: > 100 µM

* * *

Tested on: NCI-H23 lung
Experiment: NCI tumour cell line growth inhibition, 48 h
Parameter TGI: see the listing below.

smiles.structure: Cc1ccccc1N1C(=O)/C(=C/c2ccc(N(CCC#N)CCC#N)cc2)N=C1c1cc([N+](=O)[O-])ccc1Cl
TGI: > 100 µM
--
smiles.structure: O=C(Nc1nc2ncn(CCI)c2c(=O)[nH]1)c1ccccc1
TGI: > 100 µM
--
smiles.structure: O=C(O)/C=N\Nc1nc2ccccc2[nH]1
TGI: > 100 µM
--
smiles.structure: CCC1(CC)SCc2nc3ccccc3n21
TGI: > 100 µM
--
smiles.structure: S=C(c1c[nH]c2ccccc12)N1CCOCC1
TGI: > 100 µM
--
smiles.structure: O=C1NC(=Nc2ccccc2)S/C1=C\c1ccc2ncccc2c1
TGI: > 25 µM

* * *

Test system: SK-MEL-28 melanoma
Test: NCI tumour cell line growth inhibition, 48 h
Parameter TGI: see the listing below.

compound: O=C(O)/C=N\Nc1nc2ccccc2[nH]1
TGI: > 100 µM

compound: CCC(C)(C)/C(CC(O)(C(F)(F)F)C(F)(F)F)=N\O
TGI: > 100 µM

compound: NC(=O)C(N)Cc1ccc(O)cn1 (configuration not stated)
TGI: > 100 µM

compound: COC(=O)C12C3C4C1C1C2C3C41C(=O)OC(C)(C)C (configuration not stated)
TGI: > 100 µM

compound: O=C(c1ccccc1)c1cc(Cl)ccc1OCCCCN1CCN(CCCCOc2ccc(Cl)cc2C(=O)c2ccccc2)CC1
TGI: 24.2 µM

compound: COC(=O)c1cc2c3ccccc3n(C(C)=O)c2cn1
TGI: > 100 µM

compound: CCOP(=O)(Cc1ccc(CP(=O)(OCC)OCC)n1C)OCC
TGI: > 100 µM

compound: CNn1c(-c2ccccc2)n[nH]c1=O
TGI: > 100 µM

compound: CC1=Nc2ccccc2C1C(Cc1ccccc1N)c1c(C)[nH]c2ccccc12 (configuration not stated)
TGI: 32.8 µM

compound: COc1ccc(CC2c3cc(Oc4cc(CC5c6cc(OC)c(OC)cc6CCN5C)ccc4O)c(OC)cc3CCN2C)cc1 (configuration not stated)
TGI: 15.1 µM

compound: O=Cc1ccc2c(c1)CC1(C2)Cc2ccc3c(c2C1)CCC3 (configuration not stated)
TGI: 29.5 µM

compound: O=S(=O)([O-])c1ccc2c(c1)-c1nc-2nc2[n-]c(nc3nc(nc4[n-]c(n1)c1ccc(S(=O)(=O)[O-])cc41)-c1cc(S(=O)(=O)[O-])ccc1-3)c1ccc(S(=O)(=O)[O-])cc21.[Cu+2].[Na+]
TGI: > 100 µM

compound: COc1ccc(C2CC(c3cccc(Nc4ccncc4)c3)=NN2c2cc(Cl)cc(Cl)c2)cc1 (configuration not stated)
TGI: 3.36 µM

compound: NC(N)=NCCN=C(N)N
TGI: > 100 µM

compound: Cc1nnc(S(=O)(=O)c2ccc(N=Nc3c(N)nc(N)nc3N)cc2)s1
TGI: > 100 µM

compound: CC/C(=C(/c1ccc(OCCN(C)C)cc1)c1ccc(OC(=O)CCCCC(=O)c2c(C)[nH]c(/C=C3\N=C(c4ccc[nH]4)C=C3OC)c2C)cc1)c1ccccc1
TGI: 23.7 µM

compound: O=C1OC(c2ccccc2)=N/C1=C/C=C/c1ccco1
TGI: > 100 µM

compound: NS(=O)(=O)c1nn2c(Br)c(-c3ccccc3)nc2s1
TGI: 23.1 µM

compound: COc1cc(Nc2cn[nH]c2-c2ccc(Cl)cc2)cc(OC)c1OC
TGI: 56.7 µM

compound: O=C(/C=C/c1ccc(O)cc1)OC[C@@H](O)COC1OC(CO)C(O)C(O)C1O (some centres not stated)
TGI: > 100 µM

compound: CC(C)(C)OC(=O)NCC(=O)OCc1ccccc1
TGI: > 100 µM

compound: COc1ccc(C2S/C(=C\c3ccccc3O)C(=O)N2NC(=O)Cc2ccccc2)cc1 (configuration not stated)
TGI: > 100 µM

* * *

Tested on: HL-60(TB) leukemia
Test: NCI tumour cell line growth inhibition, 48 h

compound: O=S(=O)(c1ccccc1)n1c2cc3cccnc3nc2c2cccnc21
operator.symbol: =
TGI, µM: 48.1
--
compound: COc1cc(C[S+]2CCCC2)c(SC)cc1C[S+]1CCCC1
operator.symbol: >
TGI, µM: 100
--
compound: CCC1(CC)SCc2nc3ccccc3n21
operator.symbol: =
TGI, µM: 59.5
--
compound: COc1cc(/C=C2\CCC(C)C3C2=NN(C(C)=O)C3c2cc(OC)c(OC)c(OC)c2)cc(OC)c1OC (configuration not stated)
operator.symbol: >
TGI, µM: 100
--
compound: c1ccc(N=C2SC(=NC3CCCCC3)N(C3CCCCC3)C2=Nc2ccccc2)cc1
operator.symbol: >
TGI, µM: 100
--
compound: CC1CC=CC(O)C1 (configuration not stated)
operator.symbol: >
TGI, µM: 100
--
compound: CC[N+](CC)(CCNCC(N)=O)CC(N)=O
operator.symbol: >
TGI, µM: 10
--
compound: COc1cc(Nc2cn[nH]c2-c2ccc(Cl)cc2)cc(OC)c1OC
operator.symbol: =
TGI, µM: 28.6
--
compound: CNCCCn1cc(C2=C(c3cn(C)c4ccccc34)C(=O)NC2=O)c2ccccc21
operator.symbol: =
TGI, µM: 13.5
--
compound: CCCCN(CCCC)CC(C(=O)Nc1ccc([N+](=O)[O-])cc1[N+](=O)[O-])/C(C)=N\NC(=S)NN (configuration not stated)
operator.symbol: >
TGI, µM: 100
--
compound: Cc1cc(C)c(S(=O)(=O)N2CCCN(S(=O)(=O)c3c(C)cc(C)cc3C)OCCCON(S(=O)(=O)c3c(C)cc(C)cc3C)CCCN(S(=O)(=O)c3c(C)cc(C)cc3C)OCCCO2)c(C)c1
operator.symbol: >
TGI, µM: 100
--
compound: O=S1(=O)OCCOS(=O)(=O)C1F
operator.symbol: >
TGI, µM: 100
--
compound: C=C(CCCCC)CN1CCCC1[C@@](C)(O)CC(=O)OCC (some centres not stated)
operator.symbol: >
TGI, µM: 100
--
compound: O=C(c1ccc(O)cc1)C1c2c3c(cc(O)c2C(c2ccc(O)cc2)C1c1cc(O)cc(O)c1)OC(c1ccc(O)cc1)C3c1cc2c(cc1O)OC(c1ccc(O)cc1)C2c1cc(O)cc(O)c1 (configuration not stated)
operator.symbol: >
TGI, µM: 12.5
--
compound: CCCCCN=Cc1c(O)c(O)c(C(C)C)c2cc(C)c(-c3c(C)cc4c(C(C)C)c(O)c(O)c(C=NCCCCC)c4c3O)c(O)c12
operator.symbol: =
TGI, µM: 22.2
--
compound: CC(=O)OC1Oc2ccccc2-c2oc(=O)c(-c3cc(=O)oc4cc(O)ccc34)cc21 (configuration not stated)
operator.symbol: >
TGI, µM: 100
--
compound: NC(=NCCCOc1ccc(Cl)cc1)Nc1ccc(C(F)(F)F)cc1
operator.symbol: =
TGI, µM: 3.77
--
compound: COc1ccc(/C=C(/C(=O)c2ccc(Cl)cc2)N2C=CC=CC2=C(C#N)C#N)cc1OC
operator.symbol: =
TGI, µM: 7.79
--
compound: CN(c1ccc(Cl)cc1)S(=O)(=O)c1ccc([N+](=O)[O-])cc1
operator.symbol: >
TGI, µM: 100
--
compound: Ic1ccc(Nc2nc3nonc3nc2Nc2ccc(I)cc2)cc1
operator.symbol: =
TGI, µM: 0.545
--
compound: O=NN(CCCl)C(=O)NC1CCSc2ccccc21 (configuration not stated)
operator.symbol: =
TGI, µM: 48.7
--
compound: C=CC1CC12C(=O)C1OC2(C)C2C(=O)c3cc4ccccc4cc3C(=O)C12 (configuration not stated)
operator.symbol: =
TGI, µM: 65.3
--
compound: CC1CC(N)=Nc2ccccc2N1 (configuration not stated)
operator.symbol: >
TGI, µM: 100
--
compound: N#CSC#Cc1ccc(C#CSC#N)cc1
operator.symbol: >
TGI, µM: 100
--
compound: O=C(O/N=C1/CCCC/C1=C\c1ccccc1)c1ccccc1
operator.symbol: =
TGI, µM: 40.2
--
compound: S=C(c1c[nH]c2ccccc12)N1CCOCC1
operator.symbol: >
TGI, µM: 100
--
compound: CC(=O)Oc1cccc2c(/C=N/NC(N)=S)ncc(C)c12
operator.symbol: >
TGI, µM: 100

Origin of measurements: PubChem BioAssay (NCI)
